- measured-on: T1, recombinant human RON SEMA and PSI domains (human, UniProt Q04912 25-571)
- T1 construct: domain: SEMA+PSI; Commercial protein (R&D Systems); also called rhRON SEMA+PSI; hRON SEMA+PSI
- assay-notes: SPR, purified Ab captured on anti-human IgG Fc, 25 C
measurement-label: kon (M⁻¹ s⁻¹)
Give bare numbers, in M⁻¹ s⁻¹.

>  <binder>
Sh07F01-43 (antibody, human IgG1, kappa, V domains shown, Humanized, human IgG1/kappa: Sh07F01 Hv3-48 IgG1 + HE L 07F01 Kv1-9 Kappa) VH: EVQLVESGGGLVQPGGSLRLSCAASGFDFSRHWMSWVRQAPGKGLEWVSEINPDSRTINYTPSLKERFTISRDNAKNSLYLQMNSLRAEDTAVYYCARRVRIHYYGAMDSWGQGTTVTVSS VL: DIQLTQSQSFVSTSVGDRVTVTCRASQNVGSSLVWYQQKPGKSPKTLIYSASFLYSGVPSRFSGSGSGTEFTLTISSVQPEDFADYFCQQYNNYPLTFGGGTKVEIKR

>  <measurement-label>
kon

>  <measure-unit>
M⁻¹ s⁻¹

>  <observed-result>
1.2e+06

$$$$
>  <binder>
Sh07F01-62 (antibody, human IgG1, kappa, V domains shown, Humanized, human IgG1/kappa: Sh07F01 Hv3-48 D28T T60A L63V E65G IgG1 + HE L 07F01 Kv1-9 Kappa) VH: EVQLVESGGGLVQPGGSLRLSCAASGFTFSRHWMSWVRQAPGKGLEWVSEINPDSRTINYAPSVKGRFTISRDNAKNSLYLQMNSLRAEDTAVYYCARRVRIHYYGAMDSWGQGTTVTVSS VL: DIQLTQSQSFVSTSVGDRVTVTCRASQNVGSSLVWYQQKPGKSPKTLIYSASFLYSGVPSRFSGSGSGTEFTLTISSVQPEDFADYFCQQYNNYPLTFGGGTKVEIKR

>  <measurement-label>
kon

>  <measure-unit>
M⁻¹ s⁻¹

>  <observed-result>
1.8e+06

$$$$

Would you kindly look at the next entry?
Request: Give the measured kon of Sh07F01-69 (antibody, human IgG1, kappa, V domains shown, Humanized, human IgG1/kappa: Sh07F01 Hv3-48 IgG1 + Sh07F01 Kv1-9 F1 Kappa) VH: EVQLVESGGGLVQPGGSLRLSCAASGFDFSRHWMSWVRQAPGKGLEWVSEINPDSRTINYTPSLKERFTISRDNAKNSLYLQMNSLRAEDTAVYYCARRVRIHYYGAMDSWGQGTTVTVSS VL: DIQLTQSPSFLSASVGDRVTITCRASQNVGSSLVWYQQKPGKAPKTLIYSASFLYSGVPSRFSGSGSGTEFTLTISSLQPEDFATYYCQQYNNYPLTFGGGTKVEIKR .
Result: 1.1e+06
